Recorded IC50 (nM) Latent + mTLL2, one value per entry.
target: recombinant human latent myostatin (human, UniProt O14793 24-375, biotinylated (in the Octet pH assay only)); experiment: cell-based or functional assay
MEASURED_ENDPOINT: IC50 (nM) Latent + mTLL2

- Ab104 (antibody, human IgG4 S228P, kappa, V domains shown) VH: EVQLVESGGGLVQPGGSLRLSCAASGSAFSSYGMSWVRQAPGKGLELVASINSNGGSTYYPDSVKGRFTISRDNAKNSLYLQMNSLRAEDTAVYYCARDLLVKFLSWSHYYGMDVWGQGTTVTVSS VL: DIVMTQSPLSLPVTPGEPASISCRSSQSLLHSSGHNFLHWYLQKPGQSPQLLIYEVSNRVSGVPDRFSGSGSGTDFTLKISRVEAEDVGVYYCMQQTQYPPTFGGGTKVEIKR: 0.22
- Ab115 (antibody, human IgG4 S228P, kappa, V domains shown) VH: QVQLVQSGAEVKKPGASVKVSCKVSGYAFTNYNIHWVRQAPGKGLEWMGGINPRTGGTIYAQKFQGRVTMTEDTSTDTAYMELSSLKSEDTAVYYCAKDIYTGVAVAGSGMDYWGQGTLVTVSS VL: DIQMTQSPSSVSASVGDRVTITCRASQGISTHLAWYQQKPGKAPKLLIYGASNLESGVPSRFSGSGSGTDFTLTISSLQPEDFANYYCQQANSFPWTFGGGTKVEIKR: 2.94
- Ab102 (antibody, human IgG4 S228P, kappa, V domains shown) VH: EVQLVESGGGLVQPGGSLRLSCAASGFTFTSYGMSWVRQAPGKGLELVASITGSGGETYYPDSVKGRFTISRDNAKNSLYLQMNSLRAEDTAVYYCARDLLVRFLEWSHYYGMDVWGQGTTVTVSS VL: DIVMTQSPLSLPVTPGEPASISCRSSQSLLHSSGHNFLHWYLQKPGQSPQLLIYETSNRAPGIPDRFSGSGSGTDFTLKISRVEAEDVGVYYCMQATQFPRPFGGGTKVEIKR: 0.162
